# target of assay: COX-2 (Homo sapiens)
# Sequence (P35354 18-604): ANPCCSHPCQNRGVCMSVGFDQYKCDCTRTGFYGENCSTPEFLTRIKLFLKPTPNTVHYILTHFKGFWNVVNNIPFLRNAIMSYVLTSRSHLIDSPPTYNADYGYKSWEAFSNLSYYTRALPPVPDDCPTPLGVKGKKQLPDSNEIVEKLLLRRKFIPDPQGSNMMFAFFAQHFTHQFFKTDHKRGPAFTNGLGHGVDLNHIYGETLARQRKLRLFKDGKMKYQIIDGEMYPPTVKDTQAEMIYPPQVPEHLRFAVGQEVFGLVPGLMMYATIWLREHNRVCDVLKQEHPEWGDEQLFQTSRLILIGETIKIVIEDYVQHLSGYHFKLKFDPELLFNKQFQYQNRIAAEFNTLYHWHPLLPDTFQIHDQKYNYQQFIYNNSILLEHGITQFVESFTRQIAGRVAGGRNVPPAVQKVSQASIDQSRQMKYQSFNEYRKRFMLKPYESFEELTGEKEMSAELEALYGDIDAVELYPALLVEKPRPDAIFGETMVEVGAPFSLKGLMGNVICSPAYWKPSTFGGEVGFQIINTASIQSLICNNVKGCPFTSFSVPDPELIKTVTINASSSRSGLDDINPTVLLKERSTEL
# experiment notes: Spectrophotometric assay of cox-2 (TMPD oxidation)
# Type: biochemical
# Set-up: made in house; host or cells: sf-9 insect cells, baculovirus
# condition description: Conc. 100 μM; microsomes from sf-9 cells with human cox-2; read-out: Percent inhibition COX-2
Recorded inhibition at 100 µM by entry
Hi! Could you send only the number? It should be in %, unit omitted.

// below: answered molecules
| molecule | target of assay | inhibition at 100 µM [%] |
| --- | --- | --- |
| COc1ccc(C2=C(c3ccc(S(C)(=O)=O)cc3F)COC2=O)cc1C [Example 58] | COX-2 (Homo sapiens) | 93 |
| COc1ccc(C2=C(c3ccc(S(C)(=O)=O)c(C)c3)COC2=O)cc1C [Example 55] | COX-2 (Homo sapiens) | 100 |
| CCC1OC(=O)C(c2ccc(F)cc2)=C1c1ccc(S(C)(=O)=O)c(F)c1 (stereo not shown) [Example 68] | COX-2 (Homo sapiens) | 100 |

# input molecule: CS(=O)(=O)c1ccc(C2=C(c3cc(F)cc(F)c3)C(=O)OC2)c(F)c1 [Example 70] ; wanted: its inhibition at 100 µM
92

inhibition at 100 µM lookup needed for CS(=O)(=O)c1ccc(C2=C(c3cccc(F)c3)C(=O)OC2)c(F)c1 [Example 52] , thanks.
100

For Cc1cc(C2=C(c3ccccc3)C(=O)OC2)ccc1S(C)(=O)=O [Example 6] , what is its reported inhibition at 100 µM?
82

Need inhibition at 100 µM of CSc1ccc(C2=C(c3ccc(S(C)(=O)=O)c(F)c3)COC2=O)cc1C [Example 53] , thanks.
100

Entry CCC1OC(=O)C(c2ccc(SC)c(C)c2)=C1c1ccc(S(C)(=O)=O)c(F)c1 (stereo not shown) [Example 71] has what inhibition at 100 µM?
99

Which inhibition at 100 µM is reported for this molecule? CS(=O)(=O)c1ccc(C2=C(c3ccc(F)c(F)c3)C(=O)OC2)c(F)c1 [Example 69]
93

Please report the recorded inhibition at 100 µM for CS(=O)(=O)c1ccc(C2=C(c3ccc(F)cc3)C(=O)OC2)c(F)c1 [Example 1] .
100

* * *

Below: a set of entries, each annotated with reported pIC50.
# target of assay: COX-2 (Homo sapiens)
# experiment notes: Human whole blood assay, COX-2 inhibition
# condition description: read-out: IC50 COX-II
By convention, pIC50 is the negative base-10 log of a molar concentration.

| molecule | experimental result |
| --- | --- |
| Cc1cc(C2=C(c3ccccc3)C(=O)OC2)ccc1S(C)(=O)=O | 5.24 |
| CSc1ccc(C2=C(c3ccc(S(C)(=O)=O)c(F)c3)COC2=O)cc1C | 6.43 |
| CS(=O)(=O)c1ccc(C2=C(c3ccc(F)c(F)c3)C(=O)OC2)c(F)c1 | 6.50 |

What value of pIC50 has been reported for the following molecule? COc1ccc(C2=C(c3ccc(S(C)(=O)=O)c(C)c3)COC2=O)cc1C
6.00

Reported pIC50 for CCC1OC(=O)C(c2ccc(F)cc2)=C1c1ccc(S(C)(=O)=O)c(F)c1 (stereo not shown) : what is it?
5.90

What does the record list as pIC50 for CS(=O)(=O)c1ccc(C2=C(c3cccc(F)c3)C(=O)OC2)c(F)c1 ?
6.24

Given COc1ccc(C2=C(c3ccc(S(C)(=O)=O)cc3F)COC2=O)cc1C , state its recorded pIC50.
6.28

Quick one: pIC50 for CC1OC(=O)C(c2ccc(F)cc2)=C1c1ccc(S(C)(=O)=O)c(F)c1 (stereo not shown) ?
5.21

// returns reported pIC50 for input CS(=O)(=O)c1ccc(C2=C(c3cc(F)cc(F)c3)C(=O)OC2)c(F)c1
6.04

Param item = CS(=O)(=O)c1ccc(C2=C(c3ccc(F)cc3)C(=O)OC2)c(F)c1 ; retrieve measured pIC50.
5.57

Taken from patent US6686390B2.
